// provenance: the supplement of paper PMC6555819

Test system: PPARg:RXRa (NR concentration 180 nM, RXRa partner concentration 90 nM)
experiment: PBM binding z-score (relative to random genomic background probes); higher = stronger binding; sequences stand for … in GC…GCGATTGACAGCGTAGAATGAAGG
PBM binding z-score values, listed per item
Write the value as a bare number.

Known results for sequences:
What value of PBM binding z-score has been recorded for this entry: CCTCCAAGGTCAAGGTCAGTGAAAGAGACTCGAA 6.15

Returns the measured PBM binding z-score for the input sequence. Input: CCTAGTGGGTCAAGGTCACACACGCTATAGGTAC 8.69

Could you tell me which PBM binding z-score is on file for GGAACGAGGGCAAGTTGATAGCTGAGTTTGATGG ? 0.992

Any idea what PBM binding z-score was measured for CGTCCAAGGTGAAAGGTCAGTGAAGAGATGACGG ? 9.57

Please give the measured PBM binding z-score for this sequence: GTACCAAGGTGAAAAGGTCGTTGATGAGTAGGCG 2.62

# get_value(readout='PBM binding z-score', item= GCAGACAGGTGAAACGCAGGTTACTCAGGGTGGC ) 0.535

Next sequence, please.
For the sequence GCTAGTTGGTAAGTAAAAGGTCACACACCGGTCG , what PBM binding z-score is on record? 4.49

---

PBM binding z-score: recorded values
Tested on: RXRa DBDmut IVT, anti-RXR (DBD mutation: RXRa K156A/R161A, NR concentration 90 nM)
experiment: PBM binding z-score (relative to random genomic background probes); higher = stronger binding; sequences stand for … in GC…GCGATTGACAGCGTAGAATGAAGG
Please give the numeric answer without any surrounding text.

So what's the measured PBM binding z-score for this one? CAAACTAGGTCACCGGAACGTCAAAGTCCGCATG 1.46

Please give the measured PBM binding z-score for this sequence: CGAACGAGGGCATGAGTTGATAGAAAATGCCGAT 2.47

So what's the measured PBM binding z-score for this one? CCTACTAGTTGACCATAAGGGCAACCGAAGCTCG 0.0414

// query PBM binding z-score value for entry TCCCGGAGGACACGAAAGGTCAGAGCTCGACATC 0.811

Look at this sequence and give its reported PBM binding z-score. TCTAGCAGGCCAGAGGGTCACTTAAGAGGTACGG 0.154

---

Test system: PPARg:RXRa DBDmut IVT, anti-RXR (DBD mutation: RXRa K156A/R161A, NR concentration 270 nM, RXRa partner concentration 90 nM)
experiment: PBM binding z-score (relative to random genomic background probes); higher = stronger binding; sequences stand for … in GC…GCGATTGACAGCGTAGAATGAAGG
Please mark Satisfied if the recorded PBM binding z-score is equal to or greater than 2, and Not satisfied if it falls below.

// known answers, use as guide
Quick check, PBM binding z-score >= 2? CTACCAATGTGAACAAGGTCGTTGATTACTATTC Not satisfied

Entry TGTAGTTGGTCAAAGGTCACACACTCGAAATGCG : is its PBM binding z-score no less than 2? Not satisfied

Would you say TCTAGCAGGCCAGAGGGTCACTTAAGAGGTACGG shows PBM binding z-score at minimum 2? Not satisfied

Reported PBM binding z-score at or above 2? TAGCCTAGGTCAGGCGGGCCAGTATAGTGTCGGC Not satisfied

Hi, just wondering whether GCTTACGGGTCAAAGGTTATAGCGTGAATAGAAT shows PBM binding z-score of 2 or higher. Satisfied

More entries:
Would you say ATATGTAGGTTAGCTGGGGTCATACAGACTAGGC shows PBM binding z-score at minimum 2? Satisfied

Evaluate TCATATAGGTCAACAGGTGAAAGTCCGTAAGTTA : PBM binding z-score at minimum 2? Satisfied

Does the reported PBM binding z-score for ATCGAAAGGTCGAAGGGGAGTATACCCACCCGAA fall at or above the 2 mark? Not satisfied

Reported PBM binding z-score at or above 2? CCTTACTGGTCACTCCAGGTTATAGCATCGGAGT Not satisfied

Kindly determine if PBM binding z-score recorded for CGAAATAGGTCAAGGACAGTGAATCTCCGCACGC is above or exactly 2. Satisfied

---

# PBM binding z-score per entry
Test system: LXRa homodimer (NR concentration 270 nM)
experiment: PBM binding z-score (relative to random genomic background probes); higher = stronger binding; sequences stand for … in GC…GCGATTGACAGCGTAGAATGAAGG
Please reply with the number alone, leaving off any unit.

// below: answered sequences
# lookup: PBM binding z-score of CAAACTAGGTCACGAAAGCTCAAAGTCGAATGAC 0.551

Suppose we examine the sequence TCATATAGGTAACCAGGTGAAAGTCCGTAAGTTA ; what PBM binding z-score value has been reported? 0.139

What PBM binding z-score value was documented for this sequence, TTACCAAGGTGAAAGGTCGTTGGTGCACGCCTTG ? 0.325

Entry CCTAGCAGGTCAATCTGGGTCACTCAAGGCTTGA has what PBM binding z-score? 1.3

What does the record list as PBM binding z-score for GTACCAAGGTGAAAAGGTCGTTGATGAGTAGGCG ? 0.42

Recorded PBM binding z-score of ATACCAAGGAGATCGTGAGGTCGTTGATACTAAC , please. 0.339

Need PBM binding z-score of CCTGCTAGGTCATGGTCAGCTTATCTACAGTATG , thanks. 0.0847

Please look up its PBM binding z-score: AGAATGAGGTTACCAAAGAACAGGGAAACGCTTG -0.214

New cases:
Entry AGAACGGGGGCAATGAGTTGATAGCACGGGTGGC has what PBM binding z-score? 0.461

Tell me the measured PBM binding z-score of TCGAGTAGGTTAGTCGGGACATTCAGCCAACATA , please. -0.222

---

System: RARa homodimer (NR concentration 270 nM)
experiment: PBM binding z-score (relative to random genomic background probes); higher = stronger binding; sequences stand for … in GC…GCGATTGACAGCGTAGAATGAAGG
Item-by-item account of PBM binding z-score
Answer with a number only.

Illustrative cases are given below, each with its answer.
Report PBM binding z-score for ATCTCTAGGTAGCAAGTTCAGTGAAAGAGAGGAC please. 0.221

Find the recorded PBM binding z-score belonging to CCTACTGGGCCAAGAAAGGTCATTGATTCAGTGA and report it. 1.75

Item under review: AGAACGAGGGCAATGAGGTGATAGCACGGGTGGC . Reported PBM binding z-score? 0.144

What does the data say about its PBM binding z-score? Entry: CGAACTAGGTCATCCAGGATAGTGAATACATTGA 1.13

Given the entry TCATATAGGGAAATGCTAGGTGAAAGTCCGATCT , report its measured PBM binding z-score. 0.849

Read the next record carefully.
I would be grateful if you could share the reported PBM binding z-score for CCTAGCAGGCCAGGGTCACACAAGCATTTCGCTT . 0.145

---

Test system: THRa:RXRa (NR concentration 90 nM, RXRa partner concentration 90 nM)
experiment: PBM binding z-score (relative to random genomic background probes); higher = stronger binding; sequences stand for … in GC…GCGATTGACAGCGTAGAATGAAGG
experimental-readout: PBM binding z-score

Look over these answered cases.
Reported PBM binding z-score for THRa:RXRa (NR concentration 90 nM, RXRa partner concentration 90 nM), given ACAGACAGGTGATGAAGGTAACTCCGGCTATCAT ? 0.328

Find PBM binding z-score (THRa:RXRa (NR concentration 90 nM, RXRa partner concentration 90 nM)) for the entry TCTTGTAAATCAACAGGAGGTTAAGAAAGATCGA 0.911

// lookup PBM binding z-score | system=THRa:RXRa (NR concentration 90 nM, RXRa partner concentration 90 nM) | key= CCTACTGGCCCAAGGTCATTGATCAGTCAAAGCA 3.57

Please state recorded PBM binding z-score (tested on THRa:RXRa (NR concentration 90 nM, RXRa partner concentration 90 nM)) of ATCGAAAGGTCGACGAGGTGAGCATACACCGTTT 3.75

Query PBM binding z-score on THRa:RXRa (NR concentration 90 nM, RXRa partner concentration 90 nM) for GCTATTGGTTGAAAGGGCAACCGAATGATTCTCG 0.466

Request body: readout PBM binding z-score, system THRa:RXRa (NR concentration 90 nM, RXRa partner concentration 90 nM), query TCGAGTAGGTTACCAATGGAGCATTCAGCTTTCT . Return the value. -0.213

***
Hello, I am looking for reported PBM binding z-score with THRa:RXRa (NR concentration 90 nM, RXRa partner concentration 90 nM) for ACTATTAGTTGAGACGAGGGAAACCGATAGGTTG . Could you help? 0.35

Test system THRa:RXRa (NR concentration 90 nM, RXRa partner concentration 90 nM); read-out PBM binding z-score; what value for CCTCGGAGGACAGAAGGTCGGAGCTGTCCGCTTT ? 0.396

Give THRa:RXRa (NR concentration 90 nM, RXRa partner concentration 90 nM) PBM binding z-score for TCTAGCAGGCCAGAGGGTCACTCTAGAGGTACGG 1.4

Find the measured PBM binding z-score: item CCTCGGACGACAGAAGGTCAGAGCTGTCCGCTTT , target or system THRa:RXRa (NR concentration 90 nM, RXRa partner concentration 90 nM). 1.57

Value wanted: PBM binding z-score (THRa:RXRa (NR concentration 90 nM, RXRa partner concentration 90 nM)) of entry CCTAGCAGCCCAGGGTCACTCAAGCATTTCGCTT 2.77

Item: ACTATTAGTTGAGATGAGGGCAACCGATAGGTTG Test system: THRa:RXRa (NR concentration 90 nM, RXRa partner concentration 90 nM) Read-out: PBM binding z-score Value: ? 2.84

Form field: PBM binding z-score recorded for ATATGTAGGATAAGGGTCATTCAGGTTGGTTCGC with THRa:RXRa (NR concentration 90 nM, RXRa partner concentration 90 nM) (enter value) 3.25

Checklist item: PBM binding z-score tested on THRa:RXRa (NR concentration 90 nM, RXRa partner concentration 90 nM), entry AGAATAAGGTTATACGTAGATCAGGGAAGAAAGT , value? 2.41
